assay protocol: E. coli acrAB mutant growth effects, primary screen, E. coli filamentation inducers, strain DRC39, OD650, 24 h (AID 1178);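 also: growth measured as culture turbidity by optical density at 650 nm; test concentration not given here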
assay conditions: higher = more signal, called active from +8 up or from −8 down
measurement label: z-score
Returns: the value as a bare number; no unit string appended.

Consider the compound shown here: O=C1C2C=CC(C(O)C(c3ccccc3)c3ccccc3)N(Nc3ccc([N+](=O)[O-])cc3)C2C(=O)N1c1ccccc1 (centres undefined) What is its recorded z-score?
-1.12

Consider the compound shown here: O=C1O[C@@H](c2ccccc2)[C@@H](c2ccccc2)N2[C@@H](c3ccc(O)cc3)[C@]3(C(=O)Nc4ccc(C#CC5(O)CCCCCC5)cc43)[C@@H](C(=O)Nc3nc4ccccc4s3)[C@H]12 What is its recorded z-score?
0.597

Consider the compound shown here: C=CCNC(=O)[C@H]1[C@@H]2C(=O)O[C@@H](c3ccccc3)[C@@H](c3ccccc3)N2[C@@H](c2ccc(O)cc2)[C@]12C(=O)Nc1ccc(C#CCNC(N)=O)cc12 What is its recorded z-score?
0.574

Consider the compound shown here: [N-]=[N+]=NCc1ccccc1[C@H]1OC(c2ccc(OCCCO)cc2)=N[C@@]1(Cc1ccccc1N=[N+]=[N-])C(=O)NCc1ccccc1 What is its recorded z-score?
0.134

Consider the compound shown here: Cc1ccc(S[C@]2(C(=O)O)CC(=O)N(Cc3cc(C(F)(F)F)cc(C(F)(F)F)c3)[C@@H]2c2ccc(CO)cc2I)cc1 What is its recorded z-score?
0.0907

Consider the compound shown here: CCN1C(C)=C(C(=O)OC)[C@@H](c2ccccc2)N2C(=O)[C@@]3(C(=O)OC)O[C@@]12[C@@H]1C(=O)N(C)C(=O)[C@@H]13 What is its recorded z-score?
-0.234

Consider the compound shown here: CN1CCC(CCCO)=CC1C1CC1 (centres undefined) What is its recorded z-score?
0.887

Consider the compound shown here: CC(C)[C@H]1NC(=O)[C@@]23C(=O)N[C@@H](Cc4ccccc4)C2[C@H](C)[C@@]2(C)O[C@H]2C3/C=C/C/C=C\CNC(=O)[C@H](C)NC1=O (some centres undefined) What is its recorded z-score?
-0.198

Consider the compound shown here: CC1CC/C=C\[C@H]2OC34C=CCN(Cn5nnc6ccccc65)C(=O)[C@H]3N(C(C)CO)C(=O)[C@@H]4C2C(=O)O1 (some centres undefined) What is its recorded z-score?
0.756

Consider the compound shown here: Cc1ccc(N2C(=O)c3ccccc3[C@](C)(C(=O)O)[C@@H]2c2ccc(CO)cc2)nc1 What is its recorded z-score?
0.826

Consider the compound shown here: CC(C)[Si]1(C(C)C)O[C@@H](c2ccccc2)c2cc(C3CC3)nc(-c3ccc(Oc4ccccc4)cc3)c21 What is its recorded z-score?
1.3

Consider the compound shown here: CO[C@H]1COC(=O)CC=C[C@H](C)[C@@H](OC)COC(=O)[C@H](Cc2ccccc2)NC(=O)CC=C[C@@H]1C What is its recorded z-score?
0.424

Consider the compound shown here: O=C1O[C@@H](c2ccccc2)[C@@H](c2ccccc2)N2[C@@H](c3ccccc3OCCO)[C@]3(C(=O)Nc4ccc(C#CC5=CCCCC5)cc43)[C@@H](C(=O)O)[C@H]12 What is its recorded z-score?
0.175

Consider the compound shown here: C=CCN1C(=O)[C@@]2(O[C@@H](CCn3cc([C@H](O)c4ccccc4)nn3)[C@H]([Si](C)(C)c3ccc(OC)cc3)[C@H]2C)c2cc(N3CCOC3=O)ccc21 What is its recorded z-score?
1.41
